System: Staphylococcus aureus cultures
Protocol text: Agar dilution susceptibility test, phenylthioacetyl cephalosporins vs methicillin resistant S. aureus (Example 9)
Type: cell-based
Test settings: Staphylococcus aureus, culture S61; table part marked c; read-out: MIC
Each entry below carries its reported MIC.
Report only the number, with the unit µg/mL understood.

Study these solved cases before continuing.
• CC(=O)OCC1=C(C(=O)O)N2C(=O)C(NC(=O)CSc3ccc(Cl)c(Cl)c3)C2SC1 (centres unmarked) [Example 1] = 1
• CC(=O)OCC1=C(C(=O)O)N2C(=O)C(NC(=O)CSc3cc(Cl)ccc3Cl)C2SC1 (centres unmarked) [Example 2] = 1
• COc1cccc(OC)c1C(=O)N[C@@H]1C(=O)N2[C@@H]1SC(C)(C)[C@@H]2C(=O)O [Methicillin, methicillin] = 128

Qu. Please tell me: MIC of CC(=O)OCC1=C(C(=O)O)N2C(=O)C(NC(=O)CSc3cc(Cl)cc(Cl)c3)C2SC1 (centres unmarked) [Example 3] , system Staphylococcus aureus cultures?
Ans. 2

Qu. Please tell me: MIC of O=C(Cc1cccs1)N[C@@H]1C(=O)N2C(C(=O)[O-])=C(C[n+]3ccccc3)CS[C@H]12 [Cephaloridine, cephaloridine, reference compound] , system Staphylococcus aureus cultures?
Ans. 16

---

Each entry below carries its reported MIC.
Tested on: Staphylococcus aureus cultures
Protocol text: Agar dilution susceptibility test, phenylthioacetyl cephalosporins vs methicillin resistant S. aureus (Example 9)
Format: cell-based
Test settings: Staphylococcus aureus, culture 3137; table part marked c; read-out: MIC
Report only the number, with the unit µg/mL understood.

Qu. I'd like to know its MIC. The molecule in question is CC(=O)OCC1=C(C(=O)O)N2C(=O)C(NC(=O)CSc3cc(Cl)ccc3Cl)C2SC1 (centres unmarked)
Ans. 4

Qu. I'd like to know its MIC. The molecule in question is CC(=O)OCC1=C(C(=O)O)N2C(=O)C(NC(=O)CSc3cc(Cl)cc(Cl)c3)C2SC1 (centres unmarked)
Ans. 4

Qu. I'd like to know its MIC. The molecule in question is O=C(Cc1cccs1)N[C@@H]1C(=O)N2C(C(=O)[O-])=C(C[n+]3ccccc3)CS[C@H]12 [Cephaloridine, cephaloridine, reference compound]
Ans. 32

Qu. I'd like to know its MIC. The molecule in question is CC(=O)OCC1=C(C(=O)O)N2C(=O)C(NC(=O)CSc3ccc(Cl)c(Cl)c3)C2SC1 (centres unmarked)
Ans. 2

---

Test system: Staphylococcus aureus cultures
Protocol text: Broth dilution MIC in trypticase soy broth, low and high NaCl (Example 10)
Format: cell-based
Test settings: Staphylococcus aureus, culture 3055 (control); TSB, table part marked c; read-out: MIC
Experimental: This example compares the antibiotic activities of methicillin, cephalothin and cephaloridine with the compounds of Examples 1, 2 and 3, in broth dilution tests. The MIC values, in μg/ml., are against the same Staphylococcus aureus cultures described in Example 9, except that in this example the cultures were grown in trypticase soy broth (TSB). […]
Reported property: MIC (µg/mL)
Report only the number, with the unit µg/mL understood.

Study these solved cases before continuing.
* CC(=O)OCC1=C(C(=O)O)N2C(=O)C(NC(=O)CSc3cc(Cl)ccc3Cl)C2SC1 (stereo not shown) | 0.06
* COc1cccc(OC)c1C(=O)N[C@@H]1C(=O)N2[C@@H]1SC(C)(C)[C@@H]2C(=O)O | 2
* CC(=O)OCC1=C(C(=O)O)N2C(=O)C(NC(=O)CSc3ccc(Cl)c(Cl)c3)C2SC1 (stereo not shown) | 0.06

Lab note: next compound to report on.
Qu. I'd like to know its MIC. The compound in question is CC(=O)OCC1=C(C(=O)O)N2C(=O)C(NC(=O)CSc3cc(Cl)cc(Cl)c3)C2SC1 (stereo not shown)
Ans. 0.06

---

Each entry below carries its reported MIC.
System: Staphylococcus aureus cultures
Protocol text: Broth dilution MIC in trypticase soy broth, low and high NaCl (Example 10)
Type: cell-based
Test settings: Staphylococcus aureus, culture H232 (control); TSB, table part marked c; read-out: MIC
Report only the number, with the unit µg/mL understood.

- CC(=O)OCC1=C(C(=O)O)N2C(=O)C(NC(=O)CSc3ccc(Cl)c(Cl)c3)C2SC1 (stereo not shown) [Example 1]: 0.25
- CC(=O)OCC1=C(C(=O)O)N2C(=O)C(NC(=O)CSc3cc(Cl)ccc3Cl)C2SC1 (stereo not shown) [Example 2]: 0.25
- COc1cccc(OC)c1C(=O)N[C@@H]1C(=O)N2[C@@H]1SC(C)(C)[C@@H]2C(=O)O [Methicillin, methicillin]: 4

Qu. I'd like to know its MIC. The compound in question is CC(=O)OCC1=C(C(=O)O)N2C(=O)C(NC(=O)CSc3cc(Cl)cc(Cl)c3)C2SC1 (stereo not shown) [Example 3]
Ans. 0.12

---

Test system: Staphylococcus aureus cultures
Protocol text: Broth dilution MIC in trypticase soy broth, low and high NaCl (Example 10)
Type: cell-based
Test settings: Staphylococcus aureus, culture S; TSB, table part marked c; read-out: MIC
Each entry below carries its reported MIC.
Report only the number, with the unit µg/mL understood.

Study these solved cases before continuing.
• CC(=O)OCC1=C(C(=O)O)N2C(=O)C(NC(=O)CSc3ccc(Cl)c(Cl)c3)C2SC1 (centres unmarked) = 2
• COc1cccc(OC)c1C(=O)N[C@@H]1C(=O)N2[C@@H]1SC(C)(C)[C@@H]2C(=O)O = 16
• CC(=O)OCC1=C(C(=O)O)N2C(=O)C(NC(=O)CSc3cc(Cl)cc(Cl)c3)C2SC1 (centres unmarked) = 2

Qu. I'd like to know its MIC. The molecule in question is CC(=O)OCC1=C(C(=O)O)N2C(=O)C(NC(=O)CSc3cc(Cl)ccc3Cl)C2SC1 (centres unmarked)
Ans. 2

Qu. I'd like to know its MIC. The molecule in question is O=C(Cc1cccs1)N[C@@H]1C(=O)N2C(C(=O)[O-])=C(C[n+]3ccccc3)CS[C@H]12 [Cephaloridine, cephaloridine, reference compound]
Ans. 16

---

Test system: Staphylococcus aureus cultures
Protocol text: Agar dilution susceptibility test, phenylthioacetyl cephalosporins vs methicillin resistant S. aureus (Example 9)
Type: cell-based
Test settings: Staphylococcus aureus, culture 3135; table part marked c; read-out: MIC
Reported property: MIC
Returns: string containing the numeric result and its unit.

Study these solved cases before continuing.
* O=C(Cc1cccs1)N[C@@H]1C(=O)N2C(C(=O)[O-])=C(C[n+]3ccccc3)CS[C@H]12 [Cephaloridine, cephaloridine, reference compound] | 8 µg/mL
* COc1cccc(OC)c1C(=O)N[C@@H]1C(=O)N2[C@@H]1SC(C)(C)[C@@H]2C(=O)O | 64 µg/mL
* CC(=O)OCC1=C(C(=O)O)N2C(=O)C(NC(=O)CSc3ccc(Cl)c(Cl)c3)C2SC1 (centres unmarked) | 0.25 µg/mL

Qu. I'd like to know its MIC. The compound in question is CC(=O)OCC1=C(C(=O)O)N2C(=O)C(NC(=O)CSc3cc(Cl)cc(Cl)c3)C2SC1 (centres unmarked)
Ans. 1 µg/mL

Qu. I'd like to know its MIC. The compound in question is CC(=O)OCC1=C(C(=O)O)N2C(=O)C(NC(=O)CSc3cc(Cl)ccc3Cl)C2SC1 (centres unmarked)
Ans. 1 µg/mL

---

Each entry below carries its reported MIC.
Tested on: Staphylococcus aureus cultures
Protocol text: Broth dilution MIC in trypticase soy broth, low and high NaCl (Example 10)
Assay type: cell-based
Test settings: Staphylococcus aureus, culture 3137; TSB, table part marked c; read-out: MIC
Report only the number, with the unit µg/mL understood.

- CC(=O)OCC1=C(C(=O)O)N2C(=O)C(NC(=O)CSc3ccc(Cl)c(Cl)c3)C2SC1 (centres unmarked): 4

Qu. Please tell me: MIC of CC(=O)OCC1=C(C(=O)O)N2C(=O)C(NC(=O)CSc3cc(Cl)ccc3Cl)C2SC1 (centres unmarked) , system Staphylococcus aureus cultures?
Ans. 4

Qu. Please tell me: MIC of CC(=O)OCC1=C(C(=O)O)N2C(=O)C(NC(=O)CSc3cc(Cl)cc(Cl)c3)C2SC1 (centres unmarked) , system Staphylococcus aureus cultures?
Ans. 4

Qu. Please tell me: MIC of O=C(Cc1cccs1)N[C@@H]1C(=O)N2C(C(=O)[O-])=C(C[n+]3ccccc3)CS[C@H]12 [Cephaloridine, cephaloridine, reference compound] , system Staphylococcus aureus cultures?
Ans. 32

---

Tested on: Staphylococcus aureus cultures
Protocol text: Broth dilution MIC in trypticase soy broth, low and high NaCl (Example 10)
Assay type: cell-based
Test settings: Staphylococcus aureus, culture S61; TSB, table part marked c; read-out: MIC
Reported property: MIC (µg/mL)
Report only the number, with the unit µg/mL understood.

Qu. I'd like to know its MIC. The compound in question is CC(=O)OCC1=C(C(=O)O)N2C(=O)C(NC(=O)CSc3cc(Cl)ccc3Cl)C2SC1 (centres unmarked)
Ans. 2

Qu. I'd like to know its MIC. The compound in question is O=C(Cc1cccs1)N[C@@H]1C(=O)N2C(C(=O)[O-])=C(C[n+]3ccccc3)CS[C@H]12 [Cephaloridine, cephaloridine, reference compound]
Ans. 64

Qu. I'd like to know its MIC. The compound in question is CC(=O)OCC1=C(C(=O)O)N2C(=O)C(NC(=O)CSc3ccc(Cl)c(Cl)c3)C2SC1 (centres unmarked)
Ans. 2

Qu. I'd like to know its MIC. The compound in question is COc1cccc(OC)c1C(=O)N[C@@H]1C(=O)N2[C@@H]1SC(C)(C)[C@@H]2C(=O)O
Ans. 64

Qu. I'd like to know its MIC. The compound in question is CC(=O)OCC1=C(C(=O)O)N2C(=O)C(NC(=O)CSc3cc(Cl)cc(Cl)c3)C2SC1 (centres unmarked)
Ans. 1
